Taken from ChEMBL document CHEMBL1144664.

# TEST: AUC (0 to infinity) in Sprague-Dawley rat at 5 mg/kg, po
# Type: ADME, organism-based
# Set-up: time infinity, dose 5 mg/kg, route oral
# RUN_CONDITIONS: plasma
ENDPOINT_NAME: AUC(0-inf) (ng·h/mL)
Numbers only, in ng·h/mL.

INPUT: # lookup: AUC(0-inf) of Cn1c(C#N)ccc1-c1cc(F)c2c(c1)C(C)(C)C(=O)N2
OUTPUT: 7150

---

# TEST: Drug level in cynomolgus monkey at […], iv
# Assay type: ADME, organism-based, Macaca fascicularis
# Parameters: dose 0.25 mg/kg, route intravenous
# RUN_CONDITIONS: in vivo
ENDPOINT_NAME: C0
# include the unit after the value

| TEST_SMILES | C0 |
| --- | --- |
| Cn1c(C#N)ccc1-c1ccc2c(c1)C(C)(C)C(=O)N2 | 241 ng/mL |

Now look at this entry.
INPUT: Any idea what C0 was measured for Cn1c(C#N)ccc1-c1cc(F)c2c(c1)C(C)(C)C(=O)N2 ?
OUTPUT: 178 ng/mL

---

Kindly supply the reported log10 of IC50 values for the records listed here.
# TESTED_SYSTEM: UniProtKB P06401
# Sequence (P06401 whole entry): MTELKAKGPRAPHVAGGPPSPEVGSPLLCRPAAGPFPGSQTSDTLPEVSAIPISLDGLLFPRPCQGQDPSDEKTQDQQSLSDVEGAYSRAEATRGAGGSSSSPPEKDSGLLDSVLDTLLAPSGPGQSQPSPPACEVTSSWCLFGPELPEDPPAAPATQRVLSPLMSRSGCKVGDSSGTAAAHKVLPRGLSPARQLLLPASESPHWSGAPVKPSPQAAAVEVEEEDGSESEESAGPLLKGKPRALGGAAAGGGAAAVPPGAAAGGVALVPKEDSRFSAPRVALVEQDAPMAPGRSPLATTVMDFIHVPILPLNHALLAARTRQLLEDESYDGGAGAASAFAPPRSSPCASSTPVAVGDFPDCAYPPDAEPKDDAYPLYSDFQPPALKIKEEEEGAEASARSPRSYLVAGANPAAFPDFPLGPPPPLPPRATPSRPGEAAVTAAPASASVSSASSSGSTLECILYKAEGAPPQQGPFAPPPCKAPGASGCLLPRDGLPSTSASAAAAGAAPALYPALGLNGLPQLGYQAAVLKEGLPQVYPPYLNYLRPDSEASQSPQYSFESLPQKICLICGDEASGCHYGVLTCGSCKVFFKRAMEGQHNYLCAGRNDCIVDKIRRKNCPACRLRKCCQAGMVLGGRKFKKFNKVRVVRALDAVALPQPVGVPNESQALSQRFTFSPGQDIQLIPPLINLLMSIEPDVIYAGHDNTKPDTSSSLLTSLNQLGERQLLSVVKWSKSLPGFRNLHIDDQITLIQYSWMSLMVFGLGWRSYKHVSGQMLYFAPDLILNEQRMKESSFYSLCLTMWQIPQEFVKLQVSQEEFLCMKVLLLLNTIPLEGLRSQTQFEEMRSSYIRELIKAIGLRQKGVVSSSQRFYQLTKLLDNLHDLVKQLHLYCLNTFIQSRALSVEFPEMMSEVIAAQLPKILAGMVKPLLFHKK
# TEST: Displacement of [3H]R5020 from human PR in human T47D cells by whole cell assay
# Type: cell-based
The common logarithm of IC50 in nM is what is listed.

Example results:
| COMPOUND | log10 of IC50 |
| --- | --- |
| Cn1c(C#N)ccc1-c1cc(F)c2c(c1)C1(CCCC1)C(=O)N2 | 1.17 |
| CCC1(CC)C(=O)Nc2ccc(-c3ccc(C#N)n3C)cc21 | 1.56 |
| Cn1c(C#N)ccc1-c1ccc2c(c1)C1(CCCC1)C(=O)N2 | 0.91 |
| Cn1c(C#N)ccc1-c1ccc2c(c1)C(C)(C)C(=O)N2 | 1.34 |

// for each compound in input: emit log10 of IC50
1. Cn1c(C#N)ccc1-c1ccc2c(c1)C(C)(C)OC(=S)N2 [TANAPROGET]
2. Cn1c(C#N)ccc1-c1ccc2c(c1)CC(=O)N2
3. Cn1c(C#N)ccc1-c1ccc2c(c1F)C(C)(C)C(=O)N2
4. Cn1c(C#N)ccc1-c1cc(F)c2c(c1)C1(CCCCC1)C(=O)N2
5. Cn1c(C#N)ccc1-c1ccc2c(c1)C(C)(C)OC(=O)N2
6. Cn1c(C#N)ccc1-c1ccc2c(c1)C1(CCCCC1)C(=O)N2
7. Cn1c(C#N)ccc1-c1cc(F)c2c(c1)C(C)(C)C(=O)N2

OUTPUT:
-0.30
1.90
0.74
0.56
0.69
0.52
0.61

---

# Test system: Cynomolgus monkey
# TEST: Induction of early menses in cynomolgus monkey at 5 mg/kg, po
# Type: organism-based, Macaca fascicularis
# Set-up: dose 5 mg/kg, route oral
# RUN_CONDITIONS: in vivo
ENDPOINT_NAME: Activity (%)
Give bare numbers, in %.

| TEST_SMILES | TESTED_SYSTEM | UNITS_SYMBOL | Activity |
| --- | --- | --- | --- |
| Cn1c(C#N)ccc1-c1ccc2c(c1)C(C)(C)C(=O)N2 | Cynomolgus monkey | % | 0 |
| Cn1c(C#N)ccc1-c1cc(F)c2c(c1)C(C)(C)C(=O)N2 | Cynomolgus monkey | % | 75 |

Below are some molecules; for each one, tell me its Activity.
1. C=C1CCO[C@]12CC[C@H]1[C@@H]3CCC4=CC(=O)CCC4=C3[C@@H](c3ccc(C(C)=O)cc3)C[C@@]12C
2. CC#C[C@]1(O)CC[C@H]2[C@@H]3CCC4=CC(=O)CCC4=C3[C@@H](c3ccc(N(C)C)cc3)C[C@@]21C

OUTPUT:
1: 50; 2: 60
